Biological target: plasma kallikrein (PK) (Homo sapiens, UniProt P03952)
Sequence (P03952 391-638 limits assumed, species assumed): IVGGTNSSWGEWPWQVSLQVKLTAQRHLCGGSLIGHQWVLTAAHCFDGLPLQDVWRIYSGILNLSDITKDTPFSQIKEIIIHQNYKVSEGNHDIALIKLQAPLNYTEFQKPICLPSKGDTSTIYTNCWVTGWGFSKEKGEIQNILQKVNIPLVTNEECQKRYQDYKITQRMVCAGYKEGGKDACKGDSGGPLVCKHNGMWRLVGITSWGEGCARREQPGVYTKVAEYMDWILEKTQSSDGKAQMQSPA
Sequence (P03952 20-390 partner limits assumed, species assumed): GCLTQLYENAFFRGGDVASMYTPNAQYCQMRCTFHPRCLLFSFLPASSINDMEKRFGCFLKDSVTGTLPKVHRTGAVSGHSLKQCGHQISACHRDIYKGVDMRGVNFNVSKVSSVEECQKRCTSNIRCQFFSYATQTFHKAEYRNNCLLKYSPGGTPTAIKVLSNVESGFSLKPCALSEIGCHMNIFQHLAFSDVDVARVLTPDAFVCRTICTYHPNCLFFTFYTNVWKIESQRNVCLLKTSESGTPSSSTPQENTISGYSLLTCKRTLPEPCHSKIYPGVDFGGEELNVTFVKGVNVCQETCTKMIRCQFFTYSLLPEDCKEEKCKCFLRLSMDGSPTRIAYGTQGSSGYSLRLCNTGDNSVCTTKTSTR
Experiment: Determining the inhibitory constants: inhibition of PK (substrate Bzl-Pro-Phe-Arg-pNA)
Conditions: Tris buffer pH 8.0, 25° C.; mean of at least three determinations
Here the recorded Ki is given for each entry.
Provide only the numeric value, understood in µM.

Solved entries:
N=C(N)c1ccc(CNC(=O)CNC(=O)C(CCc2ccncc2)NS(=O)(=O)Cc2ccccc2)cc1 (stereo not shown) [Inhibitor 85]: 0.13
CC(C)(C)OC[C@@H](NS(=O)(=O)Cc1ccccc1)C(=O)N[C@@H](CCC(=O)O)C(=O)NCc1ccc(C(=N)N)cc1 [Inhibitor 30]: 0.36
CC(C)(C)OC[C@@H](NS(=O)(=O)Cc1ccccc1)C(=O)N[C@@H](CCCCN)C(=O)NCc1ccc(C(=N)N)cc1 [Inhibitor 35]: 0.0036

Shifting focus to the molecule that follows.
Report Ki on plasma kallikrein (PK) (Homo sapiens, UniProt P03952) for this entry: N=C(N)NCCC[C@H](NC(=O)[C@@H](CO)NS(=O)(=O)Cc1ccccc1)C(=O)NCc1ccc(C(=N)N)cc1 [Inhibitor 12]
0.079

====

Please consider the recorded Ki for human factor XIIa (Homo sapiens, UniProt P00748) in what follows.
Entry rule: numbers only, all in µM.

C[C@@H](O)[C@H](NC(=O)[C@@H](COC(C)(C)C)NS(=O)(=O)Cc1ccccc1)C(=O)NCc1ccc(C(=N)N)cc1: 14
N=C(N)c1ccc(CNC(=O)[C@H](CCC(=O)O)NC(=O)[C@@H](CC2CCCCC2)NS(=O)(=O)Cc2ccccc2)cc1: 4

Report Ki for N=C(N)c1ccc(CNC(=O)CNC(=O)[C@H](NS(=O)(=O)Cc2ccccc2)C2Cc3ccccc3C2)cc1
0.37

Supply Ki value. Item: COC(=O)c1ccc(CS(=O)(=O)N[C@H](COC(C)(C)C)C(=O)NCC(=O)NCc2ccc(C(=N)N)cc2)cc1
4.8

Report Ki for CC(C)(C)OCC(NS(=O)(=O)Cc1ccccc1)C(=O)NC(CCOCc1ccccc1)C(=O)NCc1ccc(C(=N)N)cc1 (centres unmarked)
80

Give the measured Ki for N=C(N)c1ccc(CNC(=O)[C@H](CCCCN)NC(=O)[C@@H](CC2CCCCC2)NS(=O)(=O)Cc2ccccc2)cc1
0.83

====

The molecules below have reported pKi for thrombin (UniProt P00735).
# pKi = -log10(concentration in molar units)

CC(C)(C)OC[C@@H](NS(=O)(=O)Cc1ccccc1)C(=O)NCC(=O)NCc1ccc(C(=N)N)cc1: 6.66

Look up and report measured pKi (thrombin (UniProt P00735)) for the following molecule: N=C(N)c1ccc(CNC(=O)CNC(=O)C(CO)NS(=O)(=O)Cc2ccccc2)cc1 (stereo not drawn)
4.89

Answer with pKi of CC(C)(C)OC[C@@H](NS(=O)(=O)Cc1ccccc1)C(=O)N[C@@H](CO)C(=O)NCc1ccc(C(=N)N)cc1 measured for thrombin (UniProt P00735).
7.33

Send back thrombin (UniProt P00735) pKi of N=C(N)c1ccc(CNC(=O)[C@H](CCCCNC(=O)COCC(=O)NCCOCCOCCOCCOCCOCCOCCOCCN)NC(=O)[C@@H](CC2CCCCC2)NS(=O)(=O)Cc2ccccc2)cc1 only.
8.10

====

Target: plasma kallikrein (PK) (Homo sapiens, UniProt P03952)
Assay: Determining the inhibitory constants: inhibition of PK (substrate Bzl-Pro-Phe-Arg-pNA)
Conditions: Tris buffer pH 8.0, 25° C.; mean of at least three determinations
experimentalEndpoint: pKi
Just the number, please; pKi means minus log10 of the concentration in mol/L.

Example entries and their recorded answers appear below.
CC(C)(C)OC[C@@H](NS(=O)(=O)Cc1ccc(C(=O)O)cc1)C(=O)N1CCC[C@H]1C(=O)NCc1ccc(C(=N)N)cc1 [Inhibitor 70]: 7.60
C[C@H](NC(=O)[C@@H](COC(C)(C)C)NS(=O)(=O)Cc1ccccc1)C(=O)NCc1ccc(C(=N)N)cc1 [Inhibitor 27]: 7.21

Kindly indicate its recorded pKi. Item: N=C(N)c1ccc(CNC(=O)[C@H](CCC(=O)OCc2ccccc2)NC(=O)[C@@H](CCc2ccncc2)NS(=O)(=O)Cc2ccccc2)cc1 [Inhibitor 60]
8.26

====

Target: plasma kallikrein (PK) (Homo sapiens, UniProt P03952)
Test: Determining the inhibitory constants: inhibition of PK (substrate Bzl-Pro-Phe-Arg-pNA)
Details: Tris buffer pH 8.0, 25° C.; mean of at least three determinations
Here the recorded log10(Ki) is given for each entry.
Record value = log10 of Ki given in nM.

COC(=O)c1ccc(CS(=O)(=O)N[C@H](CO)C(=O)N[C@@H](CO)C(=O)NCc2ccc(C(=N)N)cc2)cc1: 2.20
N=C(N)c1ccc(CNC(=O)CNC(=O)C(CO)NS(=O)(=O)Cc2ccccc2)cc1 (stereo not drawn): 3.23
CC(C)(C)OC[C@@H](NS(=O)(=O)Cc1ccccc1)C(=O)N[C@@H](CCCCNC(=O)C(F)(F)F)C(=O)NCc1ccc(C(=N)N)cc1: 1.04
CC(C)(C)OC[C@@H](NS(=O)(=O)Cc1ccccc1)C(=O)N[C@@H](CCc1ccccc1)C(=O)NCc1ccc(C(=N)N)cc1: 0.65
N=C(N)c1ccc(CNC(=O)[C@H](CNC(=O)OCc2ccccc2)NC(=O)[C@@H](CO)NS(=O)(=O)Cc2ccccc2)cc1: 1.62

Read the next record carefully.
Give a short answer stating reported log10(Ki) for N=C(N)c1ccc(CNC(=O)[C@H](CCCCNC(=O)COCC(=O)NCCOCCOCCOCCOCCOCCOCCOCCN)NC(=O)[C@@H](CC2CCCCC2)NS(=O)(=O)Cc2ccccc2)cc1 .
1.77

====

The following compounds each carry a recorded Ki for human factor XIa (Homo sapiens).
Give the value in nM but do not write nM after it.

Known Ki results, listed for orientation:
C[C@H](NC(=O)[C@@H](COC(C)(C)C)NS(=O)(=O)Cc1ccc(C(=O)O)cc1)C(=O)NCc1ccc(C(=N)N)cc1 [Inhibitor 48]: 6.9
N=C(N)c1ccc(CNC(=O)[C@H](CN)NC(=O)[C@@H](CO)NS(=O)(=O)Cc2ccccc2)cc1 [Inhibitor 8]: 390
CC(C)(C)OC[C@@H](NS(=O)(=O)Cc1ccccc1)C(=O)N[C@@H](COCc1ccccc1)C(=O)NCc1ccc(C(=N)N)cc1 [Inhibitor 41]: 200
CC(C)(C)OC[C@@H](NS(=O)(=O)Cc1ccccc1)C(=O)N[C@@H](CNC(=O)OCc1ccccc1)C(=O)NCc1ccc(C(=N)N)cc1 [Inhibitor 34]: 310
N=C(N)c1ccc(CNC(=O)CNC(=O)[C@@H](CCc2ccccc2)NS(=O)(=O)Cc2ccccc2)cc1 [Inhibitor 76]: 270

Specify the recorded Ki for N=C(N)c1ccc(CNC(=O)[C@H](CNC(=O)OCc2ccccc2)NC(=O)[C@@H](CO)NS(=O)(=O)Cc2ccccc2)cc1 [Inhibitor 9] , system: human factor XIa (Homo sapiens).
Sequence (P03951 388-625 limits assumed): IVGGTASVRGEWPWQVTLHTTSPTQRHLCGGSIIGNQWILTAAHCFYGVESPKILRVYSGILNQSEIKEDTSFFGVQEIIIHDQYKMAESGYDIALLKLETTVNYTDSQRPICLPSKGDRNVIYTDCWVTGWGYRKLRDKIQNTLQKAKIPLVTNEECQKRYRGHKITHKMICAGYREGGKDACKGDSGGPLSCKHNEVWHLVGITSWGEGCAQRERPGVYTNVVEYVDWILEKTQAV
Sequence (P03951 19-387 partner limits assumed): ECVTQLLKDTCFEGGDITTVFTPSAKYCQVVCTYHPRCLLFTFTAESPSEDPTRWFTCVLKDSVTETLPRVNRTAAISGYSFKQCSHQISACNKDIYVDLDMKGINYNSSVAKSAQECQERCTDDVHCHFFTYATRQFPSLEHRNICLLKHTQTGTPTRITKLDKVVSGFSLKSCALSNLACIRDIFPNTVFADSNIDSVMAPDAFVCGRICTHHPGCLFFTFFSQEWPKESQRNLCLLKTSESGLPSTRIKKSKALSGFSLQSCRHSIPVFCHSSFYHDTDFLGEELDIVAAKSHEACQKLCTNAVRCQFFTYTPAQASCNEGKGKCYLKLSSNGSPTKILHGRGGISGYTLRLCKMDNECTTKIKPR
280

====

Reported Ki by item:
Target: plasma kallikrein (PK) (Homo sapiens, UniProt P03952)
Experiment: Determining the inhibitory constants: inhibition of PK (substrate Bzl-Pro-Phe-Arg-pNA)
Type: biochemical
Conditions: Tris buffer pH 8.0, 25° C.; mean of at least three determinations
Could you give me the number in nM? Just the number is fine.

Take a look at these entries with their results.
N=C(N)c1ccc(CNC(=O)[C@H](CCC(=O)NCCCOCCOCCOCCCN)NC(=O)[C@@H](CC2CCCCC2)NS(=O)(=O)Cc2ccccc2)cc1: 15
C[C@H](NC(=O)[C@@H](CO)NS(=O)(=O)Cc1ccccc1)C(=O)NCc1ccc(C(=N)N)cc1: 70
N=C(N)c1ccc(CNC(=O)[C@H](CCC(=O)O)NC(=O)[C@@H](CC2CCCCC2)NS(=O)(=O)Cc2ccccc2)cc1: 30

Give me measured Ki, please, for this compound: N=C(N)c1ccc(CNC(=O)[C@@H]2CCCN2C(=O)[C@@H](CO)NS(=O)(=O)Cc2ccc(C(=O)O)cc2)cc1
9.1

Determine from records and report Ki for CC(C)(C)OC[C@@H](NS(=O)(=O)Cc1ccc(C#N)cc1)C(=O)N1CCC[C@H]1C(=O)NCc1ccc(C(=N)N)cc1
9.4

Provide only the value of recorded Ki for N=C(N)c1ccc(CNC(=O)[C@H](CCC(=O)O)NC(=O)[C@@H](CO)NS(=O)(=O)Cc2ccccc2)cc1
1100

Return the recorded Ki value; entry: C[C@@H](O)[C@H](NC(=O)[C@@H](CO)NS(=O)(=O)Cc1ccccc1)C(=O)NCc1ccc(C(=N)N)cc1
240

For the compound CC(C)(C)OC[C@@H](NS(=O)(=O)Cc1ccccc1)C(=O)N[C@@H](CNC(=O)OCc1ccccc1)C(=O)NCc1ccc(C(=N)N)cc1 , report Ki.
25

Annotate the compound N=C(N)c1ccc(CNC(=O)[C@H](CO)NC(=O)[C@@H](CCc2ccc(O)cc2)NS(=O)(=O)Cc2ccccc2)cc1 with its measured Ki.
130

Specify reported Ki for the compound shown: CC(C)(C)OC[C@@H](NS(=O)(=O)Cc1ccccc1)C(=O)N[C@@H](CO)CC(=O)NCc1ccc(C(=N)N)cc1
210
